Molecular target: Protein kinase 7 (PK7), Plasmodium falciparum 3D7 (PF3D7_0213400) (UniProt Q7YTF7)
Assay: inhibition of Plasmodium PK7 catalytic activity – biochemical, TCAMS antimalarial set, Kinase-Glo luminescence (AID 1159587)
Settings: recombinant PfPK7, Kinase-Glo ATP depletion luminescence
Activity calls are given as the source filed them. The rule behind the calls is not given here.
property-measured: outcome

                                   compound  reported_result
0    Cc1cnc(Nc2cccc(CCN3CCOCC3)c2)nc1NC(C)C         inactive
1  CC(=O)Nc1ccc(C(=O)NC2CCN(c3ccnc4cc(Cl)ccc34)C2)cc1 (stereo not given)         inactive
2  Cc1ccccc1C1CCN(C2CCC(NC(=O)/C=C/c3c(F)ccc(F)c3F)CC2)CC1 (stereo not given)         inactive
3  Cc1noc(C)c1-c1ccc2c(Nc3ccccc3C(C)(C)C)c(C(=O)NCc3ccccc3)cnc2c1         inactive
4        CCOc1ccc2nc(C)cc(NN=Cc3cccnc3)c2c1         inactive
5    COc1ccc2nc3cc(Cl)ccc3c(NCc3ccccc3)c2c1         inactive
6  COc1ccccc1C1CCN(Cc2csc(NC(=O)c3ccc(-c4ccc(C(F)(F)F)cc4)cc3)n2)CC1         inactive
7  O=C(Cn1c(SCc2cccc(F)c2F)cc(=O)c2ccccc21)N(CCCn1ccnc1)Cc1ccc(-c2ccc(C(F)(F)F)cc2)cc1         inactive
8  Cc1ccc(CN2CCCCC(NC(=O)c3cc4ccccc4s3)C2)cc1 (stereo not given)         inactive
9  COc1ccc(CNc2nccc3ccc(-c4ccc5nccn5c4)cc23)cc1         inactive

###

Assay: inhibition of 3D7 malaria parasite growth – strain 3D7 (AID 2306);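 note: 0% = DMSO wells and 100% = chloroquine plus artemisinin control wells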
Details: P. falciparum 3D7 erythrocytic growth, LDH absorbance, 72 h; at 2 µM; hits give high values
This section presents compounds with their documented growth inhibition values.
property-measured: growth inhibition (%)

                                    compound  unit_tag  reported_result
 0  O=C(/C=C/c1ccc(Cl)c(Cl)c1)NCCCCCCN1CCCN(C(=O)Nc2cccc(Cl)c2)CC1         %               94
 1               Cc1cccc(NC(=O)NCc2ccccc2)n1         %               97
 2  COc1ccc(NC(=O)[C@H](CC(C)C)Nc2cc(C)nc(NCCc3ccccc3)n2)cc1         %              101
 3  CN1CC[C@@H](Oc2cc(Nc3nc(-c4ccc(C#N)cc4)cs3)ccc2Cl)C1         %               99
 4  COc1ccc(CNCc2cccc(-c3cccc(-c4nc5c(C)cccc5[nH]4)c3)c2)cc1         %              102
 5  Cc1cc(N(C)C)nc(Nc2ccc(NC(=O)c3cccc(F)c3)cc2)n1         %              100
 6  CCOc1c(CNCCCNc2cc(=O)c3ccccc3[nH]2)cc(I)cc1C(C)(C)C         %              102
 7  CC(C)CCNc1nc2ccccc2nc1Nc1cccc(C(F)(F)F)c1         %               98
 8  CCc1cc(OC)ccc1C1CCN(CCCCNC(=O)c2ccc(NC(=O)c3ccc(Cl)cc3)cc2)CC1         %               95
 9  OC(CN1CCN(C2CCCCC2)CC1)Cn1c2ccccc2c2cc(Br)ccc21 (centres undefined)         %               97
10  CC(C)CNCc1ccc(OCc2cccc(COc3ccc(CNCC(C)C)cc3I)c2)c(I)c1         %               98
11  CCN(CC)CCN(CCCc1ccc(-c2ccc(C(F)(F)F)cc2)cc1)C(=O)Cn1c(CCc2cccc(F)c2F)nc(=O)c2c1CCC2         %               92
12  c1ccc(CNCc2cccc(-c3ccc(-c4nc5ccccc5[nH]4)s3)c2)cc1         %               95
13                         COc1ccc(OCCON)cc1         %               98
14  COc1ccc2nc(NC3=NC4(c5ccccc5)N=C(Nc5nc6ccc(OC)cc6[nH]5)NC4(c4ccccc4)N3)[nH]c2c1 (centres undefined)         %              100
15  CC1CC(C)CN(CCCNc2ccc(C(=O)Nc3ccc(C(F)(F)F)cc3)cc2[N+](=O)[O-])C1 (centres undefined)         %              101
16  CCN(CC)CCOc1ccc(N(Cc2ccc(C(C)(C)C)cc2)C(=O)c2ccc(Cc3ccccc3)cc2)cc1OC         %               99
17  O=C(C=Cc1ccc(Cl)c(Cl)c1)NCCCCCN1CCC(CCNC(=O)c2cccc3ccccc23)CC1         %               85
18  CN1CCN(CCCN(Cc2cccc(-c3ccc(CNCc4ccc5c(c4)OCO5)cc3)c2)C(=O)Nc2ccccc2)CC1         %               98
19  CC(=O)NCCNc1cc(N2CCc3ncnc(Nc4ccc(OCc5c(F)cccc5F)c(Cl)c4)c3C2)ncn1         %              100
20  COc1cccc(OC)c1-c1ccccc1NC(=O)N1CCCc2cc(C)ccc21         %               82
21  O=C(NCCCCCN1CCC(c2ccc(O)cc2)CC1)c1ccc(-c2ccccc2)cc1         %               92
22  Cc1ccc(C)c(NC(=O)Nc2ccc(C)c(-c3ccc(C(=O)Nc4ccncc4)cc3)c2)c1         %               98
23       Cc1nc(-c2cccc(NCc3ccccc3)c2)[nH]c1C         %              101
24  COc1ccccc1C1CCN(C2CCC(NC(=O)/C=C/c3cc(F)c(F)cc3F)CC2)CC1 (centres undefined)         %               85
25  C=CCc1c(C(=O)NCC23CC4CC(CC(C4)C2)C3)[nH]c2ccccc2c1=O         %               86
26  CCOC(=O)CCCc1cc(NC2CCN(C)CC2)nc(Nc2ccc(OC)cc2)n1         %               99
27  C/C=C/COc1ccc2ccccc2c1CNCCCCCCCCNCc1c(OC/C=C/C)ccc2ccccc12         %               87
28     Cc1ccccc1Nc1nc(NCCc2ccccc2)nc2ccccc12         %               82
29     CCN(CC)C(=S)N=Nc1c(O)[nH]c2c(C)cccc12         %               94
30  Cc1[nH]c(C)c(-c2ccc(C(=O)c3ccc(Cl)cc3)cc2)c(=O)c1Br         %               97
31  O=C1NC(c2ccccc2)C2(CCN(CC(O)COc3cccc4ncccc34)CC2)O1 (centres undefined)         %               92
32  Cc1cccc(CN2CCCN(Cc3ccc(C(=O)Nc4ccc(Cl)cc4)cc3)CC2)c1         %               92
33  CN1CCC(NCCS(=O)(=O)c2cccc(Nc3ccc(-c4cccc(F)c4)cn3)c2)CC1         %               99
34  CCOC(=O)c1[nH]c(-c2cc(Cl)nc(Cl)c2)nc1NC(=S)NCCCN1CCOCC1         %               89
35  Oc1ccc(CCNc2nc(NCCCOc3ccccc3-c3ccc(C(F)(F)F)cc3)nc(N3CCNCC3)n2)cc1         %              101
36  COc1ccc(NC(=O)[C@H](Cc2ccccc2)Nc2cc(C)nc(NCCN3CCCC3)n2)cc1         %               97
37  COc1ccc(NC(=O)[C@H](C)Nc2cc(C)nc(NCC3CCCCC3)n2)cc1         %               92
38  CCN(CCN(C)C)Cc1ccc(-c2ccc(NS(=O)(=O)c3cccc(Cl)c3)cc2)cc1         %               97

###

Biological target: L-lactate dehydrogenase (Plasmodium falciparum (isolate CDC / Honduras))
Experiment: PfLDH activity inhibition – cell lysate, 3D7 strain, counter-screen for P. falciparum growth inhibition project (AID 2304);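 note: 0% = vehicle and 100% = reference inhibitor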
Details: P. falciparum 3D7 crude extract, LDH APAD/NBT absorbance; at 2 µM; hits give high values
property-measured: inhibition (%)

                                   compound  reported_result
0           Cc1c(Cl)cccc1NC(=S)NN=Cc1ccccn1                5
1  CCN(c1cc(C)nc(Nc2ccc(Cl)cc2)n1)[C@H]1CCN(Cc2ccccc2)C1                2
2  CCN(CC)CCOc1ccc(C(O)(C#CC(O)(c2ccc(OCCN(CC)CC)cc2)c2ccc([N+](=O)[O-])cc2)c2ccc([N+](=O)[O-])cc2)cc1 (centres undefined)                3
3  N#Cc1cccc(Nc2cc(C(F)(F)F)nc(Nc3ccccc3)n2)c1                5
4  Cc1[nH]c(C)c(-c2ccc(-c3ccc(Cl)cc3)nc2)c(=O)c1Br                3
5  O=C(/C=C/c1ccc(Cl)c(Cl)c1)NCCCCN1CCCN(C(=O)Nc2ccc(F)c(Cl)c2)CC1                1
6  O=C(NC1CCCCC1)N(Cc1ccc(-c2ccc(CNC3CCCC3)cc2)cc1)C1CCN(Cc2ccccc2)CC1                3
7  Cc1cccc2[nH]c(-c3ccc(-c4ccc(NC(=O)CN5CCN(C)CC5)cc4)cc3)nc12                1
8  CN1CCN(c2cccc(Nc3nccc(NCC(O)c4ccccc4)n3)c2)CC1 (centres undefined)               -2
